# protocol details: Modulation of gamma secretase in CHO-2B7 cells assessed as reduction in amyloid beta 42 level after 5 hrs by MSD ELISA
# Assay type: cell-based
# condition set: Cricetulus griseus, CHO-2B7, 5 h
So basically: is IC50 under 400 nM? Then Met. Not under? Then Not met.

Worked set:
Req: Does the reported IC50 of the following compound sit strictly below 400 nM? "CC(C)[C@@H](OC(=O)N1CCC1)[C@H]1C[C@@H](C)[C@H]2[C@H](O1)[C@H](O)[C@@]1(C)[C@@H]3CC[C@H]4C(C)(C)[C@@H](OC(=O)NCC(=O)O)CC[C@@]45C[C@@]35CC[C@]21C"
Resp: Not met

Req: Does the reported IC50 of the following compound sit strictly below 400 nM? "CCO[C@@H]([C@H]1C[C@@H](C)[C@H]2[C@H](O1)[C@H](O)[C@@]1(C)[C@@H]3CC[C@H]4C(C)(C)[C@@H](OC(=O)N5CCOCC5)CC[C@@]45C[C@@]35CC[C@]21C)C(C)(C)O"
Resp: Met

Req: Does the reported IC50 of the following compound sit strictly below 400 nM? "CCO[C@@H]([C@H]1C[C@@H](C)[C@H]2[C@H](O1)[C@H](O)[C@@]1(C)[C@@H]3CC[C@H]4C(C)(C)[C@@H](OC(=O)N[C@H]5CCNC5=O)CC[C@@]45C[C@@]35CC[C@]21C)C(C)(C)O"
Resp: Met

Req: Does the reported IC50 of the following compound sit strictly below 400 nM? "COC(=O)OC[C@H]1C[C@@H](C)[C@H]2[C@H](O1)[C@H](O)[C@@]1(C)[C@@H]3CC[C@H]4C(C)(C)[C@@H](O[C@H]5CN(C(=O)CC6CC6)CCO5)CC[C@@]45C[C@@]35CC[C@]21C"
Resp: Met

Req: Does the reported IC50 of the following compound sit strictly below 400 nM? "C[C@@H]1C[C@H]([C@H](O)C(C)(C)O)O[C@H]2[C@H]1[C@@]1(C)CC[C@@]34C[C@@]35CC[C@H](O[C@H]3CNCCO3)C(C)(C)[C@@H]5CC[C@H]4[C@]1(C)[C@H]2O"
Resp: Not met

Req: Does the reported IC50 of the following compound sit strictly below 400 nM? "CC(C)[C@@H](OC(=O)N1CCC1)[C@H]1C[C@@H](C)[C@H]2[C@H](O1)[C@H](O)[C@@]1(C)[C@@H]3CC[C@H]4C(C)(C)[C@@H](OC(=O)N5CCOCC5)CC[C@@]45C[C@@]35CC[C@]21C"
Resp: Met

Req: Does the reported IC50 of the following compound sit strictly below 400 nM? "CC(=O)N1CCN(C(=O)O[C@H]2CC[C@]34C[C@]35CC[C@]3(C)[C@@H]6[C@H](O[C@@H]([C@H](OC(=O)N7CCC7)C(C)C)C[C@H]6C)[C@H](O)[C@@]3(C)[C@@H]5CC[C@H]4C2(C)C)CC1"
Resp: Met

Now let's try a different one.
Req: Does the reported IC50 of the following compound sit strictly below 400 nM? "CC(C)[C@@H](OC(=O)N1CCC1)[C@H]1C[C@@H](C)[C@H]2[C@H](O1)[C@H](O)[C@@]1(C)[C@@H]3CC[C@H]4C(C)(C)[C@@H](OC(=O)N[C@@H]5CCCNC5=O)CC[C@@]45C[C@@]35CC[C@]21C"
Resp: Met

---

# protocol details: Modulation of gamma secretase in CHO-2B7 cells assessed as reduction in amyloid beta 42 level after 5 hrs by MSD ELISA
# Assay type: cell-based
# condition set: Cricetulus griseus, CHO-2B7, 5 h
Exercise: for every item that follows, state its recorded IC50.
Answers are plain numbers, in µM.

Sample "CC(C)[C@@H](OC(=O)N1CCC1)[C@H]1C[C@@H](C)[C@H]2[C@H](O1)[C@H](O)[C@@]1(C)[C@@H]3CC[C@H]4C(C)(C)[C@@H](OC(=O)N5CCN(C)CC5)CC[C@@]45C[C@@]35CC[C@]21C" ; IC50 observed: 0.17

Then this molecule:
Sample "CCO[C@@H]([C@H]1C[C@@H](C)[C@H]2[C@H](O1)[C@H](O)[C@@]1(C)[C@@H]3CC[C@H]4C(C)(C)[C@@H](O[C@H]5CN(CCF)CCO5)CC[C@@]45C[C@@]35CC[C@]21C)C(C)(C)O" ; IC50 observed: 0.24

---

# protocol details: Modulation of gamma secretase in CHO-2B7 cells assessed as reduction in amyloid beta 42 level after 5 hrs by MSD ELISA
# Assay type: cell-based
# condition set: Cricetulus griseus, CHO-2B7, 5 h
quantity: log10(IC50) (log10 of the value in nM)
// units: nM (pre-log); metric: IC50; scale: log10

Sample "CCO[C@@H]([C@H]1C[C@@H](C)[C@H]2[C@H](O1)[C@H](O)[C@@]1(C)[C@@H]3CC[C@H]4C(C)(C)[C@@H](O[C@H]5CN([C@@H]6CCOC6)CCO5)CC[C@@]45C[C@@]35CC[C@]21C)C(C)(C)O" ; log10(IC50) observed: 2.26

Sample "CC(C)[C@@H](OC(=O)N1CCC1)[C@H]1C[C@@H](C)[C@H]2[C@H](O1)[C@H](O)[C@@]1(C)[C@@H]3CC[C@H]4C(C)(C)[C@@H](OC(=O)NCCCC(=O)O)CC[C@@]45C[C@@]35CC[C@]21C" ; log10(IC50) observed: 2.45

Give one value of log10(IC50) per listed compound.
1. CCO[C@@H]([C@H]1C[C@@H](C)[C@H]2[C@H](O1)[C@H](O)[C@@]1(C)[C@@H]3CC[C@H]4C(C)(C)[C@@H](O[C@H]5CN(CCN6CCC6)CCO5)CC[C@@]45C[C@@]35CC[C@]21C)C(C)(C)O
2. CC(=O)O[C@@H]([C@H]1C[C@@H](C)[C@H]2[C@H](O1)[C@H](O)[C@@]1(C)[C@@H]3CC[C@H]4C(C)(C)[C@@H](O[C@H]5CN(C6COC6)CCO5)CC[C@@]45C[C@@]35CC[C@]21C)C(C)(C)O
3. CCO[C@@H]([C@H]1C[C@@H](C)[C@H]2[C@H](O1)[C@H](O)[C@@]1(C)[C@@H]3CC[C@H]4C(C)(C)[C@@H](O[C@H]5CN(CC(=O)N(C)C)CCO5)CC[C@@]45C[C@@]35CC[C@]21C)C(C)(C)O
4. CCO[C@@H]([C@H]1C[C@@H](C)[C@H]2[C@H](O1)[C@H](O)[C@@]1(C)[C@@H]3CC[C@H]4C(C)(C)[C@@H](O[C@H]5CN(C)CCO5)CC[C@@]45C[C@@]35CC[C@]21C)C(C)(C)O
5. CCO[C@@H]([C@H]1C[C@@H](C)[C@H]2[C@H](O1)[C@H](O)[C@@]1(C)[C@@H]3CC[C@H]4C(C)(C)[C@@H](O[C@H]5CN(C6CNC6)CCO5)CC[C@@]45C[C@@]35CC[C@]21C)C(C)(C)O
6. C[C@@H]1C[C@H]([C@H](O)C(C)(C)O)O[C@H]2[C@H]1[C@@]1(C)CC[C@@]34C[C@@]35CC[C@H](OC(=O)N3CCC3)C(C)(C)[C@@H]5CC[C@H]4[C@]1(C)[C@H]2O

Resp:
1. 2.04
2. 2.23
3. 2.43
4. 2.40
5. 2.00
6. 4.11

Sample "CCO[C@@H]([C@H]1C[C@@H](C)[C@H]2[C@H](O1)[C@H](O)[C@@]1(C)[C@@H]3CC[C@H]4C(C)(C)[C@@H](O[C@H]5CN(CC)CCO5)CC[C@@]45C[C@@]35CC[C@]21C)C(C)(C)O" ; log10(IC50) observed: 2.32

---

Exercise: for every item that follows, state its recorded Stability.
# Tested on: Liver microsomes
# protocol details: Metabolic stability in human liver microsomes assessed as compound remaining at 1 uM at 60 mins by LC/MS/MS analysis in absence of NADPH
# Type: ADME, Microsome
# condition set: microsomes, 1 h, 1 µM
Give bare numbers, in %.

Give one value of Stability per listed molecule.
1. CC(C)[C@@H](OC(=O)N(C)C)[C@H]1C[C@@H](C)[C@H]2[C@H](O1)[C@H](O)[C@@]1(C)[C@@H]3CC[C@H]4C(C)(C)[C@@H](OC(N)=O)CC[C@@]45C[C@@]35CC[C@]21C
2. CC(C)[C@@H](OC(=O)N1CCC1)[C@H]1C[C@@H](C)[C@H]2[C@H](O1)[C@H](O)[C@@]1(C)[C@@H]3CC[C@H]4C(C)(C)[C@@H](O[C@H]5CNCCO5)CC[C@@]45C[C@@]35CC[C@]21C

Resp:
[131, 123]

Give one value of Stability per listed molecule.
1. CC(C)[C@@H](OC(=O)N1CCC1)[C@H]1C[C@@H](C)[C@H]2[C@H](O1)[C@H](O)[C@@]1(C)[C@@H]3CC[C@H]4C(C)(C)[C@@H](OC(=O)NC5CNC5)CC[C@@]45C[C@@]35CC[C@]21C
2. CNC(=O)O[C@H](C(C)C)[C@H]1C[C@@H](C)[C@H]2[C@H](O1)[C@H](O)[C@@]1(C)[C@@H]3CC[C@H]4C(C)(C)[C@@H](OC(=O)N5CCOCC5)CC[C@@]45C[C@@]35CC[C@]21C
3. CC(C)[C@@H](OC(N)=O)[C@H]1C[C@@H](C)[C@H]2[C@H](O1)[C@H](O)[C@@]1(C)[C@@H]3CC[C@H]4C(C)(C)[C@@H](OC(=O)NC5CNC5)CC[C@@]45C[C@@]35CC[C@]21C

Resp:
1: 127; 2: 139; 3: 121

Measured Stability (Liver microsomes), entry "CC(C)[C@@H](OC(=O)N1CCC1)[C@H]1C[C@@H](C)[C@H]2[C@H](O1)[C@H](O)[C@@]1(C)[C@@H]3CC[C@H]4C(C)(C)[C@@H](OC(=O)N5CCC5)CC[C@@]45C[C@@]35CC[C@]21C" : 158

Recorded values, source ChEMBL document CHEMBL2203235.
